# method_summary: Drug extrusion in SEB-stimulated human CD25 negative cells assessed as mean fluorescence intensity at 5 x 10^-8 M preincubated for 20 mins followed by growth in photosensitizer-free media for 30 mins by flow cytometric analysis relative to control
# condition_label: 0.5 h, 0.05 µM
Here, each record is paired with measured Flu intensity data.
measured_endpoint: Flu intensity

{"columns": ["smiles_code", "measured_endpoint", "value_measured"],
 "data": [
  ["CN1CCC(C)(C)c2cc3c(cc21)[Se]c1cc2c(cc1=C3c1ccc(C(=S)N3CCCCC3)s1)C(C)(C)CC[N+]=2C.[Cl-]", "Flu intensity", "3700 a.u."],
  ["CN1CCC(C)(C)c2cc3c(-c4ccc(C(=S)N5CCCCC5)s4)c4ccc(=[N+](C)C)cc-4[se]c3cc21.[Cl-]", "Flu intensity", "4800 a.u."],
  ["CN1CCC(C)(C)c2cc3c(-c4ccc(C(=O)N5CCCCC5)s4)c4ccc(=[N+](C)C)cc-4[se]c3cc21.[Cl-]", "Flu intensity", "270 a.u."],
  ["CN1CCC(C)(C)c2cc3c(cc21)[Se]c1cc2c(cc1=C3c1ccc(C(=O)N3CCCCC3)s1)C(C)(C)CC[N+]=2C.[Cl-]", "Flu intensity", "1100 a.u."],
  ["C[N+]1=c2cc3c(cc2C(C)(C)CC1)=C(c1ccc(C(=O)N2CCCCC2)s1)c1cc2c4c(c1[Se]3)CCCN4CCC2.[Cl-]", "Flu intensity", "3900 a.u."],
  ["C[N+]1=c2cc3c(cc2C(C)(C)CC1)=C(c1ccc(C(=S)N2CCCCC2)s1)c1cc2c4c(c1[Se]3)CCCN4CCC2.[Cl-]", "Flu intensity", "9500 a.u."],
  ["S=C(c1ccc(C2=c3cc4c5c(c3[Se]c3c2cc2c6c3CCCN6CCC2)CCC[N+]=5CCC4)s1)N1CCCCC1.[Cl-]", "Flu intensity", "16600 a.u."],
  ["O=C(c1ccc(C2=c3cc4c5c(c3[Se]c3c2cc2c6c3CCCN6CCC2)CCC[N+]=5CCC4)s1)N1CCCCC1.[Cl-]", "Flu intensity", "580 a.u."]
]}

----------
# Tested on: HuT78
# method_summary: Drug uptake in GFP expressing human HUT78 cells co-cultured with non-stimulated human PBMC cells assessed as change in mean fluorescence intensity at 7.5 x 10^-8 M after 20 mins followed by growth in photosensitizer-free media for 30 mins by flow cytometric analysis relative to control
# Type: cell-based
# condition_label: hut78, 0.5 h, 0.075 µM
Activity strictly under 30% means condition met; at 30% or over means condition not met.

{"columns": ["smiles_code", "discrete_label"],
 "data": [
  ["S=C(c1ccc(C2=c3cc4c5c(c3[Se]c3c2cc2c6c3CCCN6CCC2)CCC[N+]=5CCC4)s1)N1CCCCC1.[Cl-]", "condition met"],
  ["CN1CCC(C)(C)c2cc3c(cc21)[Se]c1cc2c(cc1=C3c1ccc(C(=O)N3CCCCC3)s1)C(C)(C)CC[N+]=2C.[Cl-]", "condition not met"],
  ["CN1CCC(C)(C)c2cc3c(cc21)[Se]c1cc2c(cc1=C3c1ccc(C(=S)N3CCCCC3)s1)C(C)(C)CC[N+]=2C.[Cl-]", "condition not met"],
  ["O=C(c1ccc(C2=c3cc4c5c(c3[Se]c3c2cc2c6c3CCCN6CCC2)CCC[N+]=5CCC4)s1)N1CCCCC1.[Cl-]", "condition not met"],
  ["C[N+]1=c2cc3c(cc2C(C)(C)CC1)=C(c1ccc(C(=S)N2CCCCC2)s1)c1cc2c4c(c1[Se]3)CCCN4CCC2.[Cl-]", "condition met"],
  ["C[N+]1=c2cc3c(cc2C(C)(C)CC1)=C(c1ccc(C(=O)N2CCCCC2)s1)c1cc2c4c(c1[Se]3)CCCN4CCC2.[Cl-]", "condition not met"]
]}

----------
# System: HuT78
# condition_label: human, hut78, 0.5 h, 0.075 µM

{"columns": ["smiles_code", "units_label", "Flu intensity"],
 "data": [
  ["C[N+]1=c2cc3c(cc2C(C)(C)CC1)=C(c1ccc(C(=O)N2CCCCC2)s1)c1cc2c4c(c1[Se]3)CCCN4CCC2.[Cl-]", "a.u.", 20000],
  ["CN1CCC(C)(C)c2cc3c(-c4ccc(C(=O)N5CCCCC5)s4)c4ccc(=[N+](C)C)cc-4[se]c3cc21.[Cl-]", "a.u.", 5270],
  ["C[N+]1=c2cc3c(cc2C(C)(C)CC1)=C(c1ccc(C(=S)N2CCCCC2)s1)c1cc2c4c(c1[Se]3)CCCN4CCC2.[Cl-]", "a.u.", 36000],
  ["CN1CCC(C)(C)c2cc3c(cc21)[Se]c1cc2c(cc1=C3c1ccc(C(=O)N3CCCCC3)s1)C(C)(C)CC[N+]=2C.[Cl-]", "a.u.", 6240]
]}

----------
Overview of reported Activity across a group of compounds:
# method_summary: Drug extrusion in human CD3 positive cells assessed as change in mean fluorescence intensity at 5 x 10^-8 M preincubated for 20 mins followed by growth in photosensitizer-free media for 30 mins by flow cytometric analysis relative to control
# Format: cell-based
# condition_label: 0.5 h, 0.05 µM

{"columns": ["smiles_code", "units_label", "Activity"],
 "data": [
  ["O=C(c1ccc(C2=c3cc4c5c(c3[Se]c3c2cc2c6c3CCCN6CCC2)CCC[N+]=5CCC4)s1)N1CCCCC1.[Cl-]", "%", 54.6],
  ["CN1CCC(C)(C)c2cc3c(cc21)[Se]c1cc2c(cc1=C3c1ccc(C(=S)N3CCCCC3)s1)C(C)(C)CC[N+]=2C.[Cl-]", "%", 40.1],
  ["C[N+]1=c2cc3c(cc2C(C)(C)CC1)=C(c1ccc(C(=O)N2CCCCC2)s1)c1cc2c4c(c1[Se]3)CCCN4CCC2.[Cl-]", "%", 52.7],
  ["CN1CCC(C)(C)c2cc3c(cc21)[Se]c1cc2c(cc1=C3c1ccc(C(=O)N3CCCCC3)s1)C(C)(C)CC[N+]=2C.[Cl-]", "%", 51.3],
  ["S=C(c1ccc(C2=c3cc4c5c(c3[Se]c3c2cc2c6c3CCCN6CCC2)CCC[N+]=5CCC4)s1)N1CCCCC1.[Cl-]", "%", 33.1],
  ["C[N+]1=c2cc3c(cc2C(C)(C)CC1)=C(c1ccc(C(=S)N2CCCCC2)s1)c1cc2c4c(c1[Se]3)CCCN4CCC2.[Cl-]", "%", 36.8]
]}

----------
# method_summary: Drug extrusion in SEB-stimulated human CD25 positive cells assessed as change in mean fluorescence intensity at 5 x 10^-8 M preincubated for 20 mins followed by growth in photosensitizer-free media for 30 mins by flow cytometric analysis relative to control
# condition_label: 0.5 h, 0.05 µM
This listing pairs compounds with measured Activity.

{"columns": ["smiles_code", "Activity"],
 "data": [
  ["C[N+]1=c2cc3c(cc2C(C)(C)CC1)=C(c1ccc(C(=S)N2CCCCC2)s1)c1cc2c4c(c1[Se]3)CCCN4CCC2.[Cl-]", "22%"],
  ["S=C(c1ccc(C2=c3cc4c5c(c3[Se]c3c2cc2c6c3CCCN6CCC2)CCC[N+]=5CCC4)s1)N1CCCCC1.[Cl-]", "16.8%"],
  ["CN1CCC(C)(C)c2cc3c(cc21)[Se]c1cc2c(cc1=C3c1ccc(C(=S)N3CCCCC3)s1)C(C)(C)CC[N+]=2C.[Cl-]", "16.4%"],
  ["C[N+]1=c2cc3c(cc2C(C)(C)CC1)=C(c1ccc(C(=O)N2CCCCC2)s1)c1cc2c4c(c1[Se]3)CCCN4CCC2.[Cl-]", "37%"],
  ["CN1CCC(C)(C)c2cc3c(cc21)[Se]c1cc2c(cc1=C3c1ccc(C(=O)N3CCCCC3)s1)C(C)(C)CC[N+]=2C.[Cl-]", "33.5%"],
  ["O=C(c1ccc(C2=c3cc4c5c(c3[Se]c3c2cc2c6c3CCCN6CCC2)CCC[N+]=5CCC4)s1)N1CCCCC1.[Cl-]", "39.9%"]
]}

----------
# method_summary: Drug uptake in SEB-stimulated human CD25 positive cells assessed as mean fluorescence intensity at 5 x 10^-8 M preincubated for 20 mins followed by growth in photosensitizer-free media for 30 mins by flow cytometric analysis relative to control
# condition_label: 0.5 h, 0.05 µM
Hi, to clarify the labels: criterion met covers Flu intensity from 10000 a.u. upward, criterion not met covers anything below 10000 a.u..

{"columns": ["smiles_code", "discrete_label"],
 "data": [
  ["CN1CCC(C)(C)c2cc3c(-c4ccc(C(=O)N5CCCCC5)s4)c4ccc(=[N+](C)C)cc-4[se]c3cc21.[Cl-]", "criterion not met"],
  ["S=C(c1ccc(C2=c3cc4c5c(c3[Se]c3c2cc2c6c3CCCN6CCC2)CCC[N+]=5CCC4)s1)N1CCCCC1.[Cl-]", "criterion met"],
  ["CN1CCC(C)(C)c2cc3c(-c4ccc(C(=S)N5CCCCC5)s4)c4ccc(=[N+](C)C)cc-4[se]c3cc21.[Cl-]", "criterion met"],
  ["C[N+]1=c2cc3c(cc2C(C)(C)CC1)=C(c1ccc(C(=S)N2CCCCC2)s1)c1cc2c4c(c1[Se]3)CCCN4CCC2.[Cl-]", "criterion met"],
  ["C[N+]1=c2cc3c(cc2C(C)(C)CC1)=C(c1ccc(C(=O)N2CCCCC2)s1)c1cc2c4c(c1[Se]3)CCCN4CCC2.[Cl-]", "criterion met"],
  ["CN1CCC(C)(C)c2cc3c(cc21)[Se]c1cc2c(cc1=C3c1ccc(C(=S)N3CCCCC3)s1)C(C)(C)CC[N+]=2C.[Cl-]", "criterion met"],
  ["O=C(c1ccc(C2=c3cc4c5c(c3[Se]c3c2cc2c6c3CCCN6CCC2)CCC[N+]=5CCC4)s1)N1CCCCC1.[Cl-]", "criterion not met"],
  ["CN1CCC(C)(C)c2cc3c(cc21)[Se]c1cc2c(cc1=C3c1ccc(C(=O)N3CCCCC3)s1)C(C)(C)CC[N+]=2C.[Cl-]", "criterion met"]
]}

Cited source: ChEMBL document CHEMBL3826914
